Hello, the source for this data is paper PMC8147254, in case you need it.

System: PBCEC monolayer
Test: in vitro
Conditions: 1 µM (760 pmol) apical, 48 h, n = 9
// reported amount in the apical compartment after 48 h, of initially applied amount per item
READOUT_LABEL: amount in the apical compartment after 48 h, of initially applied amount (%)

COMPOUND | VALUE_UNITS | NUMERIC_RESULT
Cc1c(O)c(C(=O)O)c(O)c2c1[C@H](C)[C@@H](C)OC2=O [DHCIT, dihydrocitrinone] | % | 87
C[C@@H]1Cc2c(Cl)cc(C(=O)O)c(O)c2C(=O)O1 | % | 86
CC1=C2C(=CO[C@H](C)[C@H]2C)C(O)=C(C(=O)O)C1=O | % | 67
C[C@@H]1Cc2c(Cl)cc(C(=O)N[C@@H](Cc3ccccc3)C(=O)O)c(O)c2C(=O)O1 | % | 96
